Reference source: paper PMC12715756

# pEC50 annotations
Biological target: 5-HT2A (Homo sapiens)
Construct: expressed in transfected cells; host or cells: HEK293T (ATCC; RRID:CVCL_0063), transient transfection
Sequence (P28223 whole entry): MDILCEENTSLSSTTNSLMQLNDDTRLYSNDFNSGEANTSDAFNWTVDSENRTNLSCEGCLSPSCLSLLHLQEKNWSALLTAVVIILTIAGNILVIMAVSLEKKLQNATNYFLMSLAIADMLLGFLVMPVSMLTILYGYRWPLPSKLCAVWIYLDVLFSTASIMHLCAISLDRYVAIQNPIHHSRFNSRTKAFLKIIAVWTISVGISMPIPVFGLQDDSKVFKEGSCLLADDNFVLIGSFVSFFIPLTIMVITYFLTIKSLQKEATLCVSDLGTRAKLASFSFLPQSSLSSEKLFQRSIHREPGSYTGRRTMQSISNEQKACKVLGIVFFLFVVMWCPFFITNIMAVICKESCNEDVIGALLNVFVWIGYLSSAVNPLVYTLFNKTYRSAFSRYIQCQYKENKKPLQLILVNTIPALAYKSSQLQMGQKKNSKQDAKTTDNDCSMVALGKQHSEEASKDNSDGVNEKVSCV
Experiment: Gq dissociation BRET assay in HEK293T cells
Assay type: cell-based
Conditions: Gq dissociation BRET; read-out: EC50 5-HT2A
pEC50 is defined as minus the log10 of a concentration measured in mol/L.

Ask | Could you share which pEC50 value was measured for CNC(C)Cc1ccc2c(c1)SCO2 (centres unmarked) [SDMA] ?
Reply | 5.86

Others:
Ask | Could you share which pEC50 value was measured for CC(N)Cc1ccc2c(c1)SCO2 (centres unmarked) [SDA, 1-(1,3-benzoxathiol-5-yl)propan-2-amine] ?
Reply | 6.47
